Just for reference, PubChem BioAssay (NCI) is where these values come from.

test.method.notes: NCI Yeast Anticancer Drug Screen. Data for the mlh1 rad18 strain (AID 175)
condition.info: S. cerevisiae mlh1 rad18 strain growth inhibition; at 50.0 µM; active compounds read high
This is part of a sample that, as a whole, favours compounds with a hit. Of some 79,000 tested, about 15% had one in any assay.
readout.label: growth inhibition (%)

{"compound": "CCCCN(CCCC)CC(O)c1ccc2cc(Cl)c3ccccc3c2c1 (stereo not given)", "numeric.value": 99.4}
{"compound": "COc1ccc(C(=O)C(C(c2ccccc2)N2CCc3ccccc3C2)N2CCc3ccccc3C2)cc1 (stereo not given)", "numeric.value": 27.6}
{"compound": "CCCn1cc2c(SC)nc(SC)nc2n1", "numeric.value": 98.1}
{"compound": "C/C(=N/NC(=S)N1CCCCC1)c1cccc(/C(C)=N\\NC(=S)N2CCCCC2)n1", "numeric.value": 88.2}
{"compound": "CCOC(=O)c1cnc2cc3cccccc3n2c1=O", "numeric.value": 93.3}
{"compound": "CN(C)C(C)(C)CCNc1c2ccccc2nc2cccc([N+](=O)[O-])c12", "numeric.value": 98}
{"compound": "COc1ccccc1CN1CCCN(Cc2ccccc2OC)C1c1cc(Cl)cc(Cl)c1O", "numeric.value": 78.6}
{"compound": "Cc1c2[nH]c3ccc(Br)cc3c2c(C)c2[nH]ccc(=O)c12", "numeric.value": 96.8}
{"compound": "COC(C(=O)C1=C2Oc3c4c(cc(O)c3C(=O)C2C2=C(CCCC2)C1=O)OC(C)(C)C=C4)C(C)CCC=C(C)C (stereo not given)", "numeric.value": 80.2}
{"compound": "O=C1C=CC(=Nc2ccc(O)c3ncccc23)c2cccnc21", "numeric.value": 92.4}

###

# growth inhibition annotations
test.method.notes: NCI Yeast Anticancer Drug Screen. Data for the cln2 rad14 strain (AID 165);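 note: 0% = growth equal to vehicle treated cultures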
condition.info: S. cerevisiae cln2 rad14 strain, at 50.0 µM (retest, dose inferred, filed as 5.0), active compounds read high
The panel holds about 79,000 compounds, 15% with a hit somewhere; the sample as a whole holds those more often.

{"compound": "Cc1cc2nc(-c3ccccc3[N+](=O)[O-])[nH]c2cc1C", "value.unit": "%", "growth inhibition": -1}
{"compound": "COc1cc(Nc2ccc(O)cc2)c2ncccc2c1", "value.unit": "%", "growth inhibition": 89}
{"compound": "CC1=C/C(=C\\C=C2/N(C)c3c(C)cccc3C2(C)C)C(=O)c2ncccc21", "value.unit": "%", "growth inhibition": 98}
{"compound": "O=c1c2c(F)c(F)c(F)c(F)c2sc2nccn12", "value.unit": "%", "growth inhibition": 99}
{"compound": "O=C(Nc1ccccc1)c1cccc2ccccc12", "value.unit": "%", "growth inhibition": -6}
{"compound": "O=C1C(Cl)=C(N2CCN(c3ccccn3)CC2)C(=O)c2ncccc21", "value.unit": "%", "growth inhibition": 96}
{"compound": "CN1CCC(/C=C/c2cccc3ccccc23)CN1 (stereo unspecified) (tested in a mixture with another compound)", "value.unit": "%", "growth inhibition": 27}
{"compound": "OC(c1cc(-c2ccc(Cl)c(Cl)c2)nc2ccccc12)C1CCCCN1 (stereo unspecified)", "value.unit": "%", "growth inhibition": 29}
{"compound": "C(=C\\[n+]1ccc2ccccc2c1)/c1ccccc1", "value.unit": "%", "growth inhibition": -3}
{"compound": "COc1ccc(/C=C2/C(=O)N(C(=O)c3ccccc3O)N=C2C)cc1OC", "value.unit": "%", "growth inhibition": 62}
{"compound": "O=NNc1ccc(-c2ccc([N+](=O)[O-])cc2)cn1", "value.unit": "%", "growth inhibition": 31}

###

test.method.notes: NCI Yeast Anticancer Drug Screen. Data for the bub3 strain (AID 167)
condition.info: S. cerevisiae bub3 mutant strain, at 50.0 µM (retest, dose inferred, filed as 5.0)
This is part of a sample that, as a whole, favours compounds with a hit. Of some 79,000 tested, about 15% had one in any assay. The source made the active and inactive calls. Cut-off read from the data, not from the text of the source: active = growth inhibition above about 70%; inactive = the rest.
Possible outcomes: y for active, n for inactive

{"compound": "O=C(O)c1nc2cc(C(F)(F)F)ccc2nc1Nc1ccc(F)cc1", "class.assignment": "n"}
{"compound": "Oc1ccc2ccccc2c1.[Cu+2]", "class.assignment": "n"}
{"compound": "CCCCOC(=O)c1ccc(S(=O)(=O)c2ccc(C(=O)OCCCC)cc2)cc1", "class.assignment": "n"}
{"compound": "O=C(/C(=C/c1ccc(Cl)cc1)c1ccccc1)c1ccc(O)cc1", "class.assignment": "y"}
{"compound": "Clc1cccc2c(-c3ccccc3)c3cccc(Cl)c3cc12", "class.assignment": "n"}
{"compound": "Cc1nc(-c2ccc(N=Cc3ccc(N(CCOS(C)(=O)=O)CCOS(C)(=O)=O)cc3Cl)cc2)c(C)s1", "class.assignment": "n"}
{"compound": "O=c1[nH]c2c([N+](=O)[O-])cc(Cl)cc2nc1/C=C(\\O)c1cccc2ccccc12", "class.assignment": "y"}
{"compound": "O=C(Nc1nc2c(ncn2C2CC(OC(=O)c3ccccc3)C(COC(=O)c3ccccc3)O2)c(=O)[nH]1)c1ccccc1 (configuration not stated)", "class.assignment": "n"}
{"compound": "COC(=O)/C(C#N)=C/c1cc(OC)c(O)cc1Br", "class.assignment": "n"}
{"compound": "CCCC(=O)C1=C(O)C(Cc2c(O)c(C)c(O)c(C(=O)CCC)c2O)=C(O)C(C)(C)C1=O", "class.assignment": "y"}
{"compound": "COc1ccc2c(c1)O[C@H]1c3ccc(O)cc3OC[C@@H]21", "class.assignment": "n"}
{"compound": "C=CCc1cc(Cl)ccc1O", "class.assignment": "n"}
{"compound": "CCC(C)(C)C(=O)OCC(=O)c1ccc(-c2ccccc2)cc1", "class.assignment": "n"}
{"compound": "CCCCN(CCCC)c1ccc2c(c1)C(O)c1ccccc1-2 (configuration not stated)", "class.assignment": "y"}
{"compound": "CC(=O)Oc1c(O)c2ccccc2c2ccccc12", "class.assignment": "y"}
{"compound": "Cn1ncc2c(NCc3ccc(Cl)cc3)nc(Cl)nc21", "class.assignment": "y"}
{"compound": "CC/C=C(\\C)CC(C)O (configuration not stated)", "class.assignment": "n"}
{"compound": "O/N=C(/CCc1ccccc1)c1ccccc1", "class.assignment": "y"}
{"compound": "CCN(CC)C(=O)CCCCC(=O)OC(C)C", "class.assignment": "n"}
{"compound": "CCN(CC)CCCNc1ccc([N+](=O)[O-])c2nc3ccc(OC)cc3c(N)c12", "class.assignment": "n"}
{"compound": "COC(=O)C1(Cc2ccccc2)Cc2c(C)ccc(C)c2C1=O (configuration not stated)", "class.assignment": "n"}
{"compound": "O=C(C(=O)n1ncc(Cl)c(Cl)c1=O)n1ncc(Cl)c(Cl)c1=O", "class.assignment": "n"}
{"compound": "CCCCCCCCCc1c(O)c(O)c(CCCCCCCCC)c(CCCCCCCCC)c1CCCCCCCCC", "class.assignment": "y"}
{"compound": "COc1ccc(/C(Cl)=C(\\c2ccc(OCCN(C)C)cc2)c2ccc(OC(=O)C(C)(C)C)cc2)cc1", "class.assignment": "n"}
{"compound": "S=C1C(=Nc2ccccc2)N(c2ccccc2)/C(=N\\c2cccc[n+]2Cc2ccccc2)N1c1ccccc1", "class.assignment": "y"}
{"compound": "O=c1cccccc1[O-].O=c1cccccc1[O-].O=c1cccccc1[O-].[Nd+3]", "class.assignment": "n"}
{"compound": "CC(/C=C/c1ccco1)=N\\NC(=S)NCC(C)C", "class.assignment": "y"}
{"compound": "Cc1ccc2c(c1)nc1n2C(N)=Nc2ccccc2S1", "class.assignment": "n"}
{"compound": "Cc1cc(Br)c2ccccc2c1N", "class.assignment": "n"}
{"compound": "CC(N)C1C(C)CC2C3CC=C4CC(O)CCC4(C)C3CCC21C (configuration not stated)", "class.assignment": "y"}
{"compound": "O=C(O)CCn1c2ccccc2c2ccccc21", "class.assignment": "n"}
{"compound": "Nc1nc(Cc2ccccc2)nc(Cc2ccccc2)c1-c1ccccc1", "class.assignment": "y"}
{"compound": "Oc1ccc(N=Nc2ccccc2)cc1", "class.assignment": "y"}
{"compound": "O=C1c2cccc(O)c2C(=O)c2c(O)cc(CO)cc21", "class.assignment": "y"}
{"compound": "C1=CC2OC2CCCCCCCC1 (mixture of isomers)", "class.assignment": "y"}
{"compound": "O=C(c1ccccc1)c1ccc(Br)cc1O", "class.assignment": "n"}
{"compound": "Clc1nc(Cl)c(Cc2ccccc2)c(Cl)n1", "class.assignment": "y"}
{"compound": "O=[N+]([O-])c1ccc(CO)o1", "class.assignment": "n"}
{"compound": "Cc1c(-c2ccccc2)ccnc1/C=N/NC(=S)Nc1ccc(N(C)C)cc1", "class.assignment": "y"}
{"compound": "S=C(Nc1ccc2cn[nH]c2c1)Nc1ccc2cn[nH]c2c1", "class.assignment": "n"}
{"compound": "CN(C)C1C[C@@H](O[Si](C)(C)C(C)(C)C)C=C1S(=O)(=O)c1ccccc1 (some centres not stated)", "class.assignment": "y"}
{"compound": "O=C1c2ccccc2C(=O)N1/N=C\\c1ccccc1[N+](=O)[O-]", "class.assignment": "y"}
{"compound": "O=C(O)C(Cc1cc(I)c(O)c(I)c1)C1CCCCC1 (configuration not stated)", "class.assignment": "y"}
{"compound": "C[n+]1c(/C=C/c2ccccc2Cl)ccc2ccccc21", "class.assignment": "n"}
{"compound": "CCCCCN(C(=O)CCl)c1ccccc1", "class.assignment": "n"}
{"compound": "O=C(O)C1CCC(CC2CC3CCC2C3)CC1 (configuration not stated)", "class.assignment": "n"}
{"compound": "Cc1cc(N=[N+]=[N-])c2cc(C3CCCCC3)ccc2n1", "class.assignment": "y"}
